# assay.notes: yeast display, Sf9 membrane polyspecificity reagent, FACS + sequencing; frameworks hold sequencing errors

| sequence.string | polyreactivity (PSR sort gate) |
| --- | --- |
| QVQLVESGGGLVQAGGSLRLSCAASGLTFVYYTRGWYRQAPGKERELVATITFTGGNTYYADSVKGRFTISRDNAKNTVYLQMNCLKPEDTAVYYCAKDSGPYKAEYDYGGQGTQVTVSS | low polyreactivity |
| QVQLVESRRGLVQAGGSLRLSCAASGRISNEYAMVWSRQAPGKERELVATITFSGGDTYYADSVKGRFTISRHNAKNTVYLHKNSLKPEDSAVYYCAASKWRSYCGGWWRLQFDYWGQGTQVTVSS | low polyreactivity |
| QVQLVESGGLIVQAGRSIRLTCAASGSIFYSYPMGWYRQAPGKERELVAAIRFSRGTTYYADSVKGRFTISRDNAKNTVYLQMNSLKPEDTAVYYCAATLSSYSYLFEYDYWGQCTQVTVSS | low polyreactivity |
| QVQLVESGGGLVQAGGSLRLSCAASGRIFRKYAMGWYRQAPGKERELVAAISVGGGSTRYADSEKGRFTISRDYAKYTVYLQMNSLKPEYTAVYYCAADWAYYVASYLYYTFDYWGQGTQVTVSS | low polyreactivity |

====

# assay.notes: yeast display, Sf9 membrane polyspecificity reagent, FACS + sequencing; frameworks hold sequencing errors
reported.property: polyreactivity (PSR sort gate)

| sequence.string | recorded.result |
| --- | --- |
| QVQLVESGGGLVQAGGSLRLSCAASGRTFYYYTMGWYRQAPGQERELVAAISVSGGTTYYADSVKGRFTISRDNAKYSVYLQMNSLKPDDTAVYYCAAGDGWGRRYYWGQGTQVNVSS | high polyreactivity |
| QVQLVESGGGLVQAGGSLRLSCAASGRTFYHYAMGWYRQAPGKERELVAAITGSGGSTSYADSVKGRFTISRDNAKNTVYLQMNTLKPEDTAVYYCAAVQFPTPLLLYDSWGQGTQVTVSS | low polyreactivity |
| QVQLVESGGGLVQAGGSLRLSCAASGFIFTYYAMGWYRQAPGKERELVAAITSGGSTNYADSVKGRFTISRDNAKITVYLQMNSLKPEDTAVYYCASRIYYGRFWYDYWGQGTQVTVSS | high polyreactivity |
| QVQLVESGGGLVQAGGSLRLSCAASGRILYNYAMGWYRQAPGKECELVAAISSGGSTNYADSVKGRFTISRDNAKNTVYFQMNSLKPEDTAVYYCAAYRGHSWRGLYRWSDYDFWGQGTQVTVSS | low polyreactivity |

Request: Given QVQLEESGGGLVQAGGSLRLSCAASGRIFYEYAMGWYRQAPGKERELVADISSGDDTYYADSVKGRFTISRDNAKNTVYLQMNSLKPEDTAVYYCAADDGGSGFIYDYWGQGTQVTVSS , state its recorded polyreactivity (PSR sort gate).
Response: low polyreactivity

Request: Given QVQLVDSGGGLVQAGGSLRLSCAASGSTFQGNTMGWYRQAPGKERELVAAISRSGGITYYADSVKGRFTISRVNAKNTVYLQMNSLKPEDTAVYYCAAKQVFTAGRSVDYWGQGTQVTVSS , state its recorded polyreactivity (PSR sort gate).
Response: high polyreactivity

Request: Given QVQLVESGGGLVQAGGSLRLSCAASGRILVYYAMGWYRQATGKERELVAAITASGASTYYADSVKGRFTISRDNAKKTVYLQMNSLKPEDTAVYYCKVLYPRKYWQVREYYWGQGTQVTVSS , state its recorded polyreactivity (PSR sort gate).
Response: high polyreactivity

Request: Given QVQLVESGGGLVQAGGSLRLSSAASGRTFLRYAMGWYRQAPGKVRELVAAISWSGGRTYYADSVKGRFRISRDLAKNTVYLQMNSLKTEVTAVYYCNKGVLYGAHFYYWGQGTQVTGSS , state its recorded polyreactivity (PSR sort gate).
Response: high polyreactivity

Request: Given QVQLVESGGGLVQAGGSLRLSCAASGNTFYWNAMGWYRQAPGKERELVAAITSSGGSTYYADSVKGRITISRDNAKNTVYLQMNSLKPEDTAVYYCNKDIERYVRIYDSWGQGTQVTVSS , state its recorded polyreactivity (PSR sort gate).
Response: low polyreactivity

Request: Given QVQLVESGGGLVQAGGSLRLSCAASGSIFGYYGMGWYRQAPGKERELVAAISYRGGYTYYADSVKGRFTISRDNAKNTVSLQMNSLKPEDTAVYYCNAGGRRRIFAHSSTGDYWGQGTQVTVSS , state its recorded polyreactivity (PSR sort gate).
Response: high polyreactivity

Request: Given QVQLVESGGGLVQAGGSLRLSCAASGFTFARNAMGWYRQAPGKEWELGATISTSGGSTYYADSVKGRFTISRDNAKNTVYLQMNSLKPEDSAVYYFAASYWKGYRRDYWGQGTQVTVSS , state its recorded polyreactivity (PSR sort gate).
Response: low polyreactivity

Request: Given QVQLVESGGGLVQAGGSLSLSCAASGFTFTRYVMGWYRQAPGKERELVAAISINGGRTYYADSVKGSFTNSRDNAKNTVYLQMNSLKPEDTAVYYWAAYKTYGSKYVFVDPGEYYYWGQGTQVTVSS , state its recorded polyreactivity (PSR sort gate).
Response: high polyreactivity

Request: Given QVQLVESGGGLVQAGGSLRLSCAASGSIFYRNVMGWYRQAPGKERELVAVITGSGDSTFYADSVKGRFTISRDNAKNTVYLQMNSLKPEDTAVYYCNARQVSGGYYYWGQGTQVTVSW , state its recorded polyreactivity (PSR sort gate).
Response: low polyreactivity

Request: Given QVQLVESGGGLVQAGGSLPLSCAASGRTFRSNAMGWYRQAPGKERELVAAISWSGGSTYYADSVKGRFTISRDNAKTSVYFQLNSLKPEDTAVYYCAAYYYTRFEWGQGTQVTVSS , state its recorded polyreactivity (PSR sort gate).
Response: high polyreactivity

Request: Given QVQLVESGGGLVQAGGSLRLSSAASGITFKAYAMGWYRHAPGKERELVAAISGSGGATYYADSVEGRFTISRDNEKNTVYLQMISLKPEVTAVYYCAARAVSLTGYRFGYWGQGTQVTVSS , state its recorded polyreactivity (PSR sort gate).
Response: high polyreactivity

Request: Given QVQLVESGGGLVQAGGSLRLSCAASGFIFYDYAMGWYRQAPGKERELVASISWSSGSTYYADSVKGRFTISRDNAKNTVYLQMNSLKPEDTAVYYWAADGYPLQLYNYWGLGTQVTVSS , state its recorded polyreactivity (PSR sort gate).
Response: low polyreactivity
